Where these numbers come from: ChEMBL document CHEMBL1212913

Measured on: Glutamate NMDA receptor; Grin1/Grin2c (Rattus norvegicus, UniProt P35439+Q00961)
Sequence (Q00961 whole entry, other chains not shown): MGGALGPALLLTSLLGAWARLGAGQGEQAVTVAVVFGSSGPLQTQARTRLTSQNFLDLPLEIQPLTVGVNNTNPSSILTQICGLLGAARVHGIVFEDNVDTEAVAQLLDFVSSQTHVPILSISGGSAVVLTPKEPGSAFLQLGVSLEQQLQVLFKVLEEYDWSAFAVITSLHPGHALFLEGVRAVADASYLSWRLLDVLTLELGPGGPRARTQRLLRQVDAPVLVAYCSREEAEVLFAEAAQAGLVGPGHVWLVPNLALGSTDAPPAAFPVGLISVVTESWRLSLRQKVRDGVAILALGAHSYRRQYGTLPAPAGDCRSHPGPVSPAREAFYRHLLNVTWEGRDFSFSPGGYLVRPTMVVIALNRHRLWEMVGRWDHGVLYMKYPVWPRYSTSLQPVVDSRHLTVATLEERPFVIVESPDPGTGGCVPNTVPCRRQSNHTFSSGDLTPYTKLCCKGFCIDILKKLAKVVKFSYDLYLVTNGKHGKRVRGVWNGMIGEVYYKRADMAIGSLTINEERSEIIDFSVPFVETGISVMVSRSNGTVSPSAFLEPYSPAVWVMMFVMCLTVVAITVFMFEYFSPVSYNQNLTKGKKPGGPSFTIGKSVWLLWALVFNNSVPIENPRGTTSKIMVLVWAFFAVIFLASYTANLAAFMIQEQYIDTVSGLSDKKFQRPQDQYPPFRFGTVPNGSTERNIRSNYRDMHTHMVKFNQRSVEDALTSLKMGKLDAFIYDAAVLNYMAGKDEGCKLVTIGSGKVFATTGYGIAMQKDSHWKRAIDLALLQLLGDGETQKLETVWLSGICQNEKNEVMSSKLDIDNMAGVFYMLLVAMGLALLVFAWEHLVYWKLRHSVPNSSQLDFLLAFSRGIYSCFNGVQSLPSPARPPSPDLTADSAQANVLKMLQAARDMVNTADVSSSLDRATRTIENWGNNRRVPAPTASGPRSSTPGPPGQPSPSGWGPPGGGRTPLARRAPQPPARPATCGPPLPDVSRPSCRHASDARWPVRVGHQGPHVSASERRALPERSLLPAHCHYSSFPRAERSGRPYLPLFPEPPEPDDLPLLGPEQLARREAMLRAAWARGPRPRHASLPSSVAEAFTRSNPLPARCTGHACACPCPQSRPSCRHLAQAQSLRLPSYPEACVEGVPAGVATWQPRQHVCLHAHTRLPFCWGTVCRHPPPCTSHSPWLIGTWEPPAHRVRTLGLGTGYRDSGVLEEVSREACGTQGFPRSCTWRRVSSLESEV
Test: Antagonist activity at rat recombinant NR1-NR2C receptor expressed in Xenopus oocytes at holding potential of -40mV by two-electrode voltage-clamp electrophysiology
So basically, the class depends on measured IC50, and the ranges are bucket 1: < 10 µM; bucket 2: ≥ 10 µM and < 20 µM; bucket 3: ≥ 20 µM

- Compound string: "O=C(O)c1ccc(-n2c(/C=C/c3cccc([N+](=O)[O-])c3)nc3ccc(-c4ccccc4)cc3c2=O)cc1"
  Measured on: "Glutamate NMDA receptor; Grin1/Grin2c (Rattus norvegicus, UniProt P35439+Q00961)"
  Label class: "bucket 1"
- Compound string: "Cc1ccc2nc(/C=C/c3ccccc3)n(-c3ccc(C(=O)O)cc3)c(=O)c2c1"
  Measured on: "Glutamate NMDA receptor; Grin1/Grin2c (Rattus norvegicus, UniProt P35439+Q00961)"
  Label class: "bucket 3"
- Compound string: "O=C(O)c1ccc(-n2c(/C=C/c3cccc([N+](=O)[O-])c3)nc3c(Cl)cc(Cl)cc3c2=O)cc1"
  Measured on: "Glutamate NMDA receptor; Grin1/Grin2c (Rattus norvegicus, UniProt P35439+Q00961)"
  Label class: "bucket 2"
- Compound string: "O=C(O)c1cccc(-n2c(/C=C/c3cccc([N+](=O)[O-])c3)nc3ccccc3c2=O)c1"
  Measured on: "Glutamate NMDA receptor; Grin1/Grin2c (Rattus norvegicus, UniProt P35439+Q00961)"
  Label class: "bucket 2"
- Compound string: "Cc1cccc(-n2c(/C=C/c3cccnc3)nc3ccc(I)cc3c2=O)c1"
  Measured on: "Glutamate NMDA receptor; Grin1/Grin2c (Rattus norvegicus, UniProt P35439+Q00961)"
  Label class: "bucket 3"
- Compound string: "O=C(O)c1ccc(-n2c(/C=C/c3cccc([N+](=O)[O-])c3)nc3ccc(/C=C/c4ccccc4)cc3c2=O)cc1"
  Measured on: "Glutamate NMDA receptor; Grin1/Grin2c (Rattus norvegicus, UniProt P35439+Q00961)"
  Label class: "bucket 1"
- Compound string: "O=C(O)c1ccc(-n2c(/C=C/c3cccc4ccccc34)nc3ccccc3c2=O)cc1"
  Measured on: "Glutamate NMDA receptor; Grin1/Grin2c (Rattus norvegicus, UniProt P35439+Q00961)"
  Label class: "bucket 3"
- Compound string: "O=C(O)c1ccc(-n2c(/C=C/c3cccc([N+](=O)[O-])c3)nc3cc(Cl)ccc3c2=O)cc1"
  Measured on: "Glutamate NMDA receptor; Grin1/Grin2c (Rattus norvegicus, UniProt P35439+Q00961)"
  Label class: "bucket 2"
- Compound string: "COc1cccc(-n2c(/C=C/c3cccnc3)nc3ccc(I)cc3c2=O)c1"
  Measured on: "Glutamate NMDA receptor; Grin1/Grin2c (Rattus norvegicus, UniProt P35439+Q00961)"
  Label class: "bucket 3"
- Compound string: "O=C(O)c1ccc(-n2c(/C=C/c3cccnc3)nc3ccc(I)cc3c2=O)cc1"
  Measured on: "Glutamate NMDA receptor; Grin1/Grin2c (Rattus norvegicus, UniProt P35439+Q00961)"
  Label class: "bucket 1"
- Compound string: "O=c1c2cc(I)ccc2nc(/C=C/c2cccnc2)n1-c1ccc([N+](=O)[O-])cc1"
  Measured on: "Glutamate NMDA receptor; Grin1/Grin2c (Rattus norvegicus, UniProt P35439+Q00961)"
  Label class: "bucket 3"
- Compound string: "COc1ccc(-n2c(/C=C/c3cccc([N+](=O)[O-])c3)nc3ccccc3c2=O)cc1"
  Measured on: "Glutamate NMDA receptor; Grin1/Grin2c (Rattus norvegicus, UniProt P35439+Q00961)"
  Label class: "bucket 3"
- Compound string: "O=C(O)c1ccc(-n2c(/C=C/c3ccc4ccccc4c3)nc3ccccc3c2=O)cc1"
  Measured on: "Glutamate NMDA receptor; Grin1/Grin2c (Rattus norvegicus, UniProt P35439+Q00961)"
  Label class: "bucket 2"
- Compound string: "O=C(O)c1ccc(-n2c(/C=C/c3ccc4c(c3)OCCO4)nc3ccccc3c2=O)cc1"
  Measured on: "Glutamate NMDA receptor; Grin1/Grin2c (Rattus norvegicus, UniProt P35439+Q00961)"
  Label class: "bucket 3"
- Compound string: "Cc1ccc2nc(/C=C/c3cccc([N+](=O)[O-])c3)n(-c3ccc(C(=O)O)cc3)c(=O)c2c1"
  Measured on: "Glutamate NMDA receptor; Grin1/Grin2c (Rattus norvegicus, UniProt P35439+Q00961)"
  Label class: "bucket 1"
- Compound string: "O=C(O)c1ccc(-n2c(/C=C/c3ccc([N+](=O)[O-])cc3)nc3c(Cl)cc(Cl)cc3c2=O)cc1"
  Measured on: "Glutamate NMDA receptor; Grin1/Grin2c (Rattus norvegicus, UniProt P35439+Q00961)"
  Label class: "bucket 1"
- Compound string: "O=c1c2ccccc2nc(/C=C/c2cccnc2)n1-c1ccccc1"
  Measured on: "Glutamate NMDA receptor; Grin1/Grin2c (Rattus norvegicus, UniProt P35439+Q00961)"
  Label class: "bucket 3"
- Compound string: "O=C(O)c1ccccc1-n1c(/C=C/c2ccc([N+](=O)[O-])cc2)nc2ccccc2c1=O"
  Measured on: "Glutamate NMDA receptor; Grin1/Grin2c (Rattus norvegicus, UniProt P35439+Q00961)"
  Label class: "bucket 3"

====

Measured on: Ionotropic glutamate receptor NMDA 1/2D (Rattus norvegicus, UniProt P35439+Q62645)
Sequence (Q62645 whole entry, other chains not shown): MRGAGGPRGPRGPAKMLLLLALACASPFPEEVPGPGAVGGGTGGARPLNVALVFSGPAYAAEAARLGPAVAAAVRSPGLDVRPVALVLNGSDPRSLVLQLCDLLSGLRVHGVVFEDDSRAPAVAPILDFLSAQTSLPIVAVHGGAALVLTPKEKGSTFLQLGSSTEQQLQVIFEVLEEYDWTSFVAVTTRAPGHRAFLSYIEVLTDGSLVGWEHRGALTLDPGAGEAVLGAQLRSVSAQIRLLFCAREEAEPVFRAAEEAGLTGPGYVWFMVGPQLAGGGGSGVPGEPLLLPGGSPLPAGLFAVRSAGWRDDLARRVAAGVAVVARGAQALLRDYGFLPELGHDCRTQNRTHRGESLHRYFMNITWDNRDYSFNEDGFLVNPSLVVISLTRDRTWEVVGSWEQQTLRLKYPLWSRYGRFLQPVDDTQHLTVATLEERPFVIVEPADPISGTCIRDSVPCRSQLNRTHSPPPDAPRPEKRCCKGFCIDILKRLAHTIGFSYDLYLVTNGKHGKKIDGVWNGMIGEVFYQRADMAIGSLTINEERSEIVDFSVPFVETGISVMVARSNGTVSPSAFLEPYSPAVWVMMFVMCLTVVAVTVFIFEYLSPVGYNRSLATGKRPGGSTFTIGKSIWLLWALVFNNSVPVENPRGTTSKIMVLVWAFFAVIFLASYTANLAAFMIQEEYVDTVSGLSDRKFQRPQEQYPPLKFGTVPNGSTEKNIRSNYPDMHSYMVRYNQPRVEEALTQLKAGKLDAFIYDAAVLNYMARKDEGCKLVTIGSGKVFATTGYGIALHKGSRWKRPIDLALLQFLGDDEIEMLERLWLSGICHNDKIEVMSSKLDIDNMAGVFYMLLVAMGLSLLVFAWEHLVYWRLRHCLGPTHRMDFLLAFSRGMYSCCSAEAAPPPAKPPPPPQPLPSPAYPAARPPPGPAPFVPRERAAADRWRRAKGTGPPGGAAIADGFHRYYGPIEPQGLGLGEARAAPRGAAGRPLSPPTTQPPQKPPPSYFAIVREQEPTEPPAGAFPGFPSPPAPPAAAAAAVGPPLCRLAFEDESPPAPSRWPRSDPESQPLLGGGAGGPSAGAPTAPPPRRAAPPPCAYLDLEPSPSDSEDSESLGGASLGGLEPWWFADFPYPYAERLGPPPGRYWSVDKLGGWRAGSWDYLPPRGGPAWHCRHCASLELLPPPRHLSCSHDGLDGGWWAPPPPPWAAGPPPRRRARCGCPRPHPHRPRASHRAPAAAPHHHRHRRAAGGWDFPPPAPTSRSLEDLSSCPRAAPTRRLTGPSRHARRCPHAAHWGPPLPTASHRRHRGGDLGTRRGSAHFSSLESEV
Test: Antagonist activity at rat recombinant NR1-NR2D receptor expressed in Xenopus oocytes at holding potential of -40mV by two-electrode voltage-clamp electrophysiology

- Compound string: "O=C(O)c1ccc(-n2c(/C=C/c3ccccc3)nc3ccccc3c2=O)cc1"
  Measured on: "Ionotropic glutamate receptor NMDA 1/2D (Rattus norvegicus, UniProt P35439+Q62645)"
  Unit annotation: "µM"
  Comparator: "="
  IC50: 33
- Compound string: "Cc1ccccc1/C=C/c1nc2ccccc2c(=O)n1-c1ccc(C(=O)O)cc1"
  Measured on: "Ionotropic glutamate receptor NMDA 1/2D (Rattus norvegicus, UniProt P35439+Q62645)"
  Unit annotation: "µM"
  Comparator: "="
  IC50: 81
- Compound string: "O=C(O)c1ccc(-n2c(/C=C/c3cccc([N+](=O)[O-])c3)nc3cc4ccccc4cc3c2=O)cc1"
  Measured on: "Ionotropic glutamate receptor NMDA 1/2D (Rattus norvegicus, UniProt P35439+Q62645)"
  Unit annotation: "µM"
  Comparator: "="
  IC50: 2
- Compound string: "O=c1c2ccccc2nc(/C=C/c2cccc([N+](=O)[O-])c2)n1-c1ccccc1"
  Measured on: "Ionotropic glutamate receptor NMDA 1/2D (Rattus norvegicus, UniProt P35439+Q62645)"
  Unit annotation: "µM"
  Comparator: ">"
  IC50: 300
- Compound string: "O=C(O)c1ccc(-n2c(/C=C/c3cccc([N+](=O)[O-])c3)nc3cccc(Cl)c3c2=O)cc1"
  Measured on: "Ionotropic glutamate receptor NMDA 1/2D (Rattus norvegicus, UniProt P35439+Q62645)"
  Unit annotation: "µM"
  Comparator: "="
  IC50: 14

====

Measured on: Glutamate NMDA receptor; Grin1/Grin2a (Rattus norvegicus, UniProt P35439+Q00959)
Sequence (Q00959 whole entry, other chains not shown): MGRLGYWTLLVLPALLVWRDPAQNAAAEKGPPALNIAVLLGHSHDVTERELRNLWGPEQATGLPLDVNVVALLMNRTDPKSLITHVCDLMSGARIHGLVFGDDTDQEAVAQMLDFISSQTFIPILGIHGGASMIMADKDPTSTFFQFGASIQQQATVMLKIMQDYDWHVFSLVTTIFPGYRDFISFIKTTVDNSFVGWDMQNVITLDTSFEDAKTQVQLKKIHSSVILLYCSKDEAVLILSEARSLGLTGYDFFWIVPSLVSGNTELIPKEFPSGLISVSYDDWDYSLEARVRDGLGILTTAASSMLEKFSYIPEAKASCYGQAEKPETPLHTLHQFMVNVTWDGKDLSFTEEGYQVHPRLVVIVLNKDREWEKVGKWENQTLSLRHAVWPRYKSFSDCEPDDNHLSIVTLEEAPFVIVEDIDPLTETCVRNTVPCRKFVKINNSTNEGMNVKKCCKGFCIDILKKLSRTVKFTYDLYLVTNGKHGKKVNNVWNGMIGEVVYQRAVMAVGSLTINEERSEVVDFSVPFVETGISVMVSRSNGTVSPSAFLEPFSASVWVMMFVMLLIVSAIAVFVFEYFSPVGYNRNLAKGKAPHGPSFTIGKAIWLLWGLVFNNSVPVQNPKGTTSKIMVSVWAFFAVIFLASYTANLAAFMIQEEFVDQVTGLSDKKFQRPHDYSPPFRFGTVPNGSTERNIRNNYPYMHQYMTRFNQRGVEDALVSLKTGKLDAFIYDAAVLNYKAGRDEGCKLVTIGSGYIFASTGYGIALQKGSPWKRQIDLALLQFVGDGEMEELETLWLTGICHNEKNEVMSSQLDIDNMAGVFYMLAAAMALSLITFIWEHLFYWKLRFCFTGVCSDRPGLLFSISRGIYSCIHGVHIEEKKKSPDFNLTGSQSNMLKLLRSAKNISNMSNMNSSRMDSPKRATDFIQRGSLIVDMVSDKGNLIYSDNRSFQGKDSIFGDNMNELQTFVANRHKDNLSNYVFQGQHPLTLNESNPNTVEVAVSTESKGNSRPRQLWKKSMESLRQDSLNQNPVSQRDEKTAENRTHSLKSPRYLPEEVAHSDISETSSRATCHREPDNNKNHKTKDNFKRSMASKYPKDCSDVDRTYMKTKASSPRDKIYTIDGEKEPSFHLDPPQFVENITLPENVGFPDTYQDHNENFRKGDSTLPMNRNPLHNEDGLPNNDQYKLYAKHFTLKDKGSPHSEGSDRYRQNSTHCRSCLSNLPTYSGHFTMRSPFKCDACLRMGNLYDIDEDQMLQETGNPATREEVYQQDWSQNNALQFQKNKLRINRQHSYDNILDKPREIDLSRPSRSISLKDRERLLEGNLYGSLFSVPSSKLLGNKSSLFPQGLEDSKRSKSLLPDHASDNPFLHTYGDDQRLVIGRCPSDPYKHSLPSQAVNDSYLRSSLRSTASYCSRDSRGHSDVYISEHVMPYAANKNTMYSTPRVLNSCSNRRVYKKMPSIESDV
Test: Antagonist activity at rat recombinant NR1-NR2A receptor expressed in Xenopus oocytes at holding potential of -40mV by two-electrode voltage-clamp electrophysiology
Format: functional, cell-based, Oocyte
Condition parameters: read-out: IC50
Mark 1.0 only for IC50 values smaller than 50 µM; exact matches and larger values are 0.0.

- Compound string: "Cc1nc2ccc(I)cc2c(=O)n1-c1ccc(C(=O)O)cc1"
  Label class: 0.0
- Compound string: "COc1ccccc1-n1c(/C=C/c2ccccc2[N+](=O)[O-])nc2ccccc2c1=O"
  Label class: 1.0
- Compound string: "Cc1ccc2nc(/C=C/c3ccccc3)n(-c3ccc(C(=O)O)cc3)c(=O)c2c1"
  Label class: 1.0
- Compound string: "Cc1ccccc1-n1c(/C=C/c2cccnc2)nc2ccc(I)cc2c1=O"
  Label class: 0.0
- Compound string: "COC(=O)c1ccc(-n2c(/C=C/c3cccc([N+](=O)[O-])c3)nc3ccc(OC)cc3c2=O)cc1"
  Label class: 0.0
- Compound string: "O=C(O)c1ccc(-n2c(/C=C/c3cccc([N+](=O)[O-])c3)nc3cc4c(cc3c2=O)OCO4)cc1"
  Label class: 0.0
- Compound string: "CSc1ccc(/C=C/c2nc3ccccc3c(=O)n2-c2ccc(C(=O)O)cc2)cc1"
  Label class: 0.0
- Compound string: "O=C(O)c1ccc(-n2c(/C=C/c3ccccc3)nc3ccc(I)cc3c2=O)cc1"
  Label class: 0.0
- Compound string: "O=C(O)c1ccc(-n2c(/C=C/c3cccc([N+](=O)[O-])c3)nc3ccc(-c4ccccc4)cc3c2=O)cc1"
  Label class: 1.0

====

Measured on: Glutamate NMDA receptor; Grin1/Grin2c (Rattus norvegicus, UniProt P35439+Q00961)
Test: Antagonist activity at rat recombinant NR1-NR2C receptor expressed in Xenopus oocytes at holding potential of -40mV by two-electrode voltage-clamp electrophysiology
pIC50: −log10 of the molar value.
Mark N for pIC50 values under 5, and Y for everything at or above.

- Compound string: "COc1ccc2nc(/C=C/c3cccc([N+](=O)[O-])c3)n(-c3ccc(C(N)=O)cc3)c(=O)c2c1"
  Measured on: "Glutamate NMDA receptor; Grin1/Grin2c (Rattus norvegicus, UniProt P35439+Q00961)"
  Label class: "N"
- Compound string: "O=C(O)c1ccc(-n2c(/C=C/c3ccc([N+](=O)[O-])cc3)nc3ccc(I)cc3c2=O)cc1"
  Measured on: "Glutamate NMDA receptor; Grin1/Grin2c (Rattus norvegicus, UniProt P35439+Q00961)"
  Label class: "Y"
- Compound string: "O=C(O)c1ccc(-n2c(/C=C/c3ccc(OC(F)F)cc3)nc3ccccc3c2=O)cc1"
  Measured on: "Glutamate NMDA receptor; Grin1/Grin2c (Rattus norvegicus, UniProt P35439+Q00961)"
  Label class: "N"
- Compound string: "O=c1c2cc(I)ccc2nc(/C=C/c2cccnc2)n1-c1ccccc1[N+](=O)[O-]"
  Measured on: "Glutamate NMDA receptor; Grin1/Grin2c (Rattus norvegicus, UniProt P35439+Q00961)"
  Label class: "N"
- Compound string: "O=C(O)c1cccc(-n2c(/C=C/c3cccc([N+](=O)[O-])c3)nc3ccc(I)cc3c2=O)c1"
  Measured on: "Glutamate NMDA receptor; Grin1/Grin2c (Rattus norvegicus, UniProt P35439+Q00961)"
  Label class: "Y"
- Compound string: "COc1cccc(-n2c(/C=C/c3ccc([N+](=O)[O-])cc3)nc3ccccc3c2=O)c1"
  Measured on: "Glutamate NMDA receptor; Grin1/Grin2c (Rattus norvegicus, UniProt P35439+Q00961)"
  Label class: "N"
- Compound string: "COc1ccc2nc(/C=C/c3cccc([N+](=O)[O-])c3)n(-c3cccc(C(=O)O)c3)c(=O)c2c1"
  Measured on: "Glutamate NMDA receptor; Grin1/Grin2c (Rattus norvegicus, UniProt P35439+Q00961)"
  Label class: "N"
- Compound string: "CN(C)c1ccc(/C=C/c2nc3ccccc3c(=O)n2-c2ccc(C(=O)O)cc2)cc1"
  Measured on: "Glutamate NMDA receptor; Grin1/Grin2c (Rattus norvegicus, UniProt P35439+Q00961)"
  Label class: "N"
- Compound string: "COc1ccc2cc(/C=C/c3nc4ccccc4c(=O)n3-c3ccc(C(=O)O)cc3)ccc2c1"
  Measured on: "Glutamate NMDA receptor; Grin1/Grin2c (Rattus norvegicus, UniProt P35439+Q00961)"
  Label class: "N"
- Compound string: "Cc1ccccc1-n1c(/C=C/c2cccnc2)nc2ccc(I)cc2c1=O"
  Measured on: "Glutamate NMDA receptor; Grin1/Grin2c (Rattus norvegicus, UniProt P35439+Q00961)"
  Label class: "N"
- Compound string: "COc1ccccc1-n1c(/C=C/c2ccccc2[N+](=O)[O-])nc2ccccc2c1=O"
  Measured on: "Glutamate NMDA receptor; Grin1/Grin2c (Rattus norvegicus, UniProt P35439+Q00961)"
  Label class: "Y"
- Compound string: "COc1ccc(-n2c(/C=C/c3ccccc3[N+](=O)[O-])nc3ccccc3c2=O)cc1"
  Measured on: "Glutamate NMDA receptor; Grin1/Grin2c (Rattus norvegicus, UniProt P35439+Q00961)"
  Label class: "N"
- Compound string: "O=C(O)c1ccccc1-n1c(/C=C/c2cccc([N+](=O)[O-])c2)nc2ccccc2c1=O"
  Measured on: "Glutamate NMDA receptor; Grin1/Grin2c (Rattus norvegicus, UniProt P35439+Q00961)"
  Label class: "N"
- Compound string: "O=C(O)c1ccc(-n2c(/C=C/c3cccc([N+](=O)[O-])c3)nc3ccc([N+](=O)[O-])cc3c2=O)cc1"
  Measured on: "Glutamate NMDA receptor; Grin1/Grin2c (Rattus norvegicus, UniProt P35439+Q00961)"
  Label class: "N"
- Compound string: "O=C(O)c1cccc(-n2c(/C=C/c3ccc([N+](=O)[O-])cc3)nc3ccccc3c2=O)c1"
  Measured on: "Glutamate NMDA receptor; Grin1/Grin2c (Rattus norvegicus, UniProt P35439+Q00961)"
  Label class: "N"
